// provenance: ChEMBL document CHEMBL3044844

# Tested on: Micrococcus luteus
# Protocol Details: Antibacterial activity against Micrococcus luteus ATCC 10240 assessed as growth inhibition after 18 hr by CLSI broth microdilution method
# Type: functional
# Run Parameters: ATCC 10240, 18 h
Attribute Measured: MIC (µg/mL)

The cases that follow already have their MIC on record.
chemical_string=O=C(CSc1nnc(-c2ccccc2)n1-c1ccccc1)NNC(=S)NC(=O)c1ccccc1 attribute_measured=MIC assay_result=125
chemical_string=S=c1[nH]nc(CSc2nnc(-c3ccccc3)n2-c2ccccc2)n1Cc1ccccc1 attribute_measured=MIC assay_result=1000

[I] CO/N=C(\C(=O)N[C@@H]1C(=O)N2C(C(=O)O)=C(COC(N)=O)CS[C@H]12)c1ccco1
[II] C=CCn1c(CSc2nnc(-c3ccccc3)n2-c2ccccc2)n[nH]c1=S
In terms of reported MIC, does I or II have the smaller number? // return label of chosen record I
(I: 0.49 µg/mL, II: 1000 µg/mL)

###

# Tested on: Micrococcus luteus
# Protocol Details: Antibacterial activity against Micrococcus luteus ATCC 10240 assessed as growth inhibition after 18 hr by CLSI broth microdilution method
# Format: functional
# Run Parameters: ATCC 10240, 18 h
Attribute Measured: MIC (µg/mL)

[1] CCOC(=O)NC(=S)NNC(=O)CSc1nnc(-c2ccccc2)n1-c1ccccc1
[2] S=c1[nH]nc(CSc2nnc(-c3ccccc3)n2-c2ccccc2)n1C1CCCCC1
Compare reported MIC values for 1 and 2 . Which is lower? Please respond with the label that marks your chosen entry. 2
(2: 250 µg/mL, 1: 1000 µg/mL)

###

# System: Bacillus spizizenii
# Protocol Details: Antibacterial activity against Bacillus subtilis subsp. spizizenii ATCC 6633 assessed as growth inhibition after 18 hr by CLSI broth microdilution method
# Type: functional
# Run Parameters: ATCC 6633, 18 h
Attribute Measured: MIC (mg/L)

Sample answers from the record:
compound=CCOC(=O)NC(=S)NNC(=O)CSc1nnc(-c2ccccc2)n1-c1ccccc1 attribute_measured=MIC measurement_units=mg/L assay_result=500
compound=O=C(CSc1nnc(-c2ccccc2)n1-c1ccccc1)NNC(=S)NC(=O)c1ccccc1 attribute_measured=MIC measurement_units=mg/L assay_result=250
compound=S=c1[nH]nc(CSc2nnc(-c3ccccc3)n2-c2ccccc2)n1C1CCCCC1 attribute_measured=MIC measurement_units=mg/L assay_result=500

[P] CO/N=C(\C(=O)N[C@@H]1C(=O)N2C(C(=O)O)=C(COC(N)=O)CS[C@H]12)c1ccco1 [CEFUROXIME]
[Q] COc1ccc(CNC(=S)NNC(=O)CSc2nnc(-c3ccccc3)n2-c2ccccc2)cc1
[R] O=C(CSc1nnc(-c2ccccc2)n1-c1ccccc1)NNC(=S)NC1CCCCC1
[S] c1ccc(CNc2nnc(CSc3nnc(-c4ccccc4)n3-c3ccccc3)s2)cc1
Ranking field: MIC; order: falling. // ordering of labels required in reply R, Q, S, P
(R: 1000 mg/L, Q: 500 mg/L, S: 15.6 mg/L, P: 0.49 mg/L)

###

# System: Micrococcus luteus
# Protocol Details: Antibacterial activity against Micrococcus luteus ATCC 10240 assessed as growth inhibition after 18 hr by CLSI broth microdilution method
# Format: functional
# Run Parameters: ATCC 10240, 18 h
Attribute Measured: MIC (µg/mL)

chemical_string=O=C(CSc1nnc(-c2ccccc2)n1-c1ccccc1)NNC(=S)NC1CCCCC1 attribute_measured=MIC measurement_units=µg/mL assay_result=1000

[1] COc1ccc(CNC(=S)NNC(=O)CSc2nnc(-c3ccccc3)n2-c2ccccc2)cc1
[2] c1ccc(CNc2nnc(CSc3nnc(-c4ccccc4)n3-c3ccccc3)s2)cc1
# min-compare on MIC between 1 and 2 Which one? Tell me its label. 2
